Overview of reported z-score of subpopulation abundance across a group of molecules:
system: Saccharomyces cerevisiae BY4741 SeMeCo community; assay: z-score of subpopulation abundance vs DMSO median, subpopulation auxotrophic for HUM; higher = larger share of this subpopulation than in DMSO controls; details: 10 µM; 24 h; SM minimal medium; subpopulation (auxotrophy): HUM
Where a name gives a salt, the structure may show the parent alone.
Measure Name: z-score of subpopulation abundance

[[record]]
molecule = "NC(=O)c1cnccn1 [Pyrazinamide]"
quantitative_readout = 0.08

[[record]]
molecule = "O=C1C(CC[S+]([O-])c2ccccc2)C(=O)N(c2ccccc2)N1c1ccccc1 (racemic) [(+/-)-Sulfinpyrazone]"
quantitative_readout = 0.22

[[record]]
molecule = "CCCCOc1ccc(CC(=O)NO)cc1"
quantitative_readout = -1.13

[[record]]
molecule = "Oc1c(I)cc(Cl)c2cccnc12"
quantitative_readout = 16.6

[[record]]
molecule = "CCCCC(=O)O[C@H]1CC[C@H]2[C@@H]3CCc4cc(O)ccc4[C@H]3CC[C@]12C [Estradiol valerate]"
quantitative_readout = 0.19

[[record]]
molecule = "CC(C)(O/N=C(\\C(=O)N[C@@H]1C(=O)N2C(C(=O)[O-])=C(C[n+]3ccccc3)CS[C@H]12)c1csc(N)n1)C(=O)O"
quantitative_readout = 0.14

[[record]]
molecule = "O=C(O)c1cn(C2CC2)c2cc(N3CCNCC3)c(F)cc2c1=O [Ciprofloxacin hydrochloride hydrate]"
quantitative_readout = 0.96

[[record]]
molecule = "C[C@H]1COc2c(N3CCN(C)CC3)c(F)cc3c(=O)c(C(=O)O)cn1c23 [Levofloxacin hydrate]"
quantitative_readout = 0.55


* * *

tested on: Saccharomyces cerevisiae BY4741 SeMeCo community; assay: z-score of subpopulation abundance vs DMSO median, subpopulation auxotrophic for LM; higher = larger share of this subpopulation than in DMSO controls; conditions: 10 µM; 24 h; SM minimal medium; subpopulation (auxotrophy): LM
Structures can show the parent of a compound that is named as a salt.
Measure Name: z-score of subpopulation abundance

[[record]]
compound = "CCN(CC)CCOc1ccc2c(c1)C(=O)c1cc(OCCN(CC)CC)ccc1-2 [Tilorone dihydrochloride]"
target_under_test = "Saccharomyces cerevisiae BY4741 SeMeCo community"
result = -0.86

[[record]]
compound = "CC[C@H]1OC(=O)[C@H](C)[C@@H](O[C@H]2C[C@@](C)(OC)[C@@H](O)[C@H](C)O2)[C@H](C)[C@@H](O[C@@H]2O[C@H](C)C[C@H](N(C)C)[C@H]2O)[C@](C)(O)C[C@@H](C)CN[C@H](C)[C@@H](O)[C@]1(C)O [Azathramycin]"
target_under_test = "Saccharomyces cerevisiae BY4741 SeMeCo community"
result = -0.14

[[record]]
compound = "O=C1NC(=O)C(c2ccccc2)(c2ccccc2)N1 [Phenytoin]"
target_under_test = "Saccharomyces cerevisiae BY4741 SeMeCo community"
result = 0.5

[[record]]
compound = "NC(=O)N/N=C/c1ccc([N+](=O)[O-])o1 [Nitrofural]"
target_under_test = "Saccharomyces cerevisiae BY4741 SeMeCo community"
result = -1.3

[[record]]
compound = "Cc1ccc(C(=O)C(C)CN2CCCCC2)cc1 (stereo unspecified) [Tolperisone HCl]"
target_under_test = "Saccharomyces cerevisiae BY4741 SeMeCo community"
result = -0.14

[[record]]
compound = "Oc1c(I)cc(I)c2cccnc12 [Diiodohydroxyquinoline]"
target_under_test = "Saccharomyces cerevisiae BY4741 SeMeCo community"
result = 0.38

[[record]]
compound = "CC(=O)OCC(CCn1cnc2cnc(N)nc21)COC(C)=O [Famciclovir]"
target_under_test = "Saccharomyces cerevisiae BY4741 SeMeCo community"
result = -0.17

[[record]]
compound = "O=c1[nH]cc(F)c(=O)[nH]1 [Fluorouracil (5-Fluoracil, 5-FU)]"
target_under_test = "Saccharomyces cerevisiae BY4741 SeMeCo community"
result = 0.7

[[record]]
compound = "O=C([O-])CC(O)(CC(=O)[O-])C(=O)[O-].O=C([O-])CC(O)(CC(=O)[O-])C(=O)[O-].[Bi+3].[K+].[K+].[K+].[K+].[K+] [Bismuth Subcitrate Potassium]"
target_under_test = "Saccharomyces cerevisiae BY4741 SeMeCo community"
result = -1.07

[[record]]
compound = "CO/N=C(\\C(=O)N[C@@H]1C(=O)N2C(C(=O)[O-])=C(C[n+]3cccc4c3CCC4)CS[C@H]12)c1csc(N)n1 [Cefpirome sulfate]"
target_under_test = "Saccharomyces cerevisiae BY4741 SeMeCo community"
result = 0.27

[[record]]
compound = "COc1ccc2cc3[n+](cc2c1OC)CCc1cc2c(cc1-3)OCO2 [Berberine Sulfate]"
target_under_test = "Saccharomyces cerevisiae BY4741 SeMeCo community"
result = -0.28

[[record]]
compound = "CN1CCC(=C2c3ccccc3CCc3sccc32)CC1 [Pizotifen Malate]"
target_under_test = "Saccharomyces cerevisiae BY4741 SeMeCo community"
result = -0.03

[[record]]
compound = "CC1=C(C(=O)O)N2C(=O)[C@@H](NC(=O)[C@H](N)C3=CCC=CC3)[C@H]2SC1 [Cephradine monohydrate]"
target_under_test = "Saccharomyces cerevisiae BY4741 SeMeCo community"
result = -0.77

[[record]]
compound = "Cc1c(-c2ccc(O)cc2)n(Cc2ccc(OCCN3CCCCCC3)cc2)c2ccc(O)cc12 [Bazedoxifene Acetate]"
target_under_test = "Saccharomyces cerevisiae BY4741 SeMeCo community"
result = -0.35

[[record]]
compound = "CC(C(=O)O)c1ccc2c(c1)CC(=O)c1ccccc1S2 (stereo unspecified) [Zaltoprofen]"
target_under_test = "Saccharomyces cerevisiae BY4741 SeMeCo community"
result = -0.57

[[record]]
compound = "CCCOc1ccc(C(=O)OCCN(CC)CC)cc1N [Proparacaine HCl]"
target_under_test = "Saccharomyces cerevisiae BY4741 SeMeCo community"
result = -0.38

[[record]]
compound = "CC[C@@]1(O)C(=O)OCc2c1cc1n(c2=O)Cc2cc3cc(O)ccc3nc2-1 [Hydroxy Camptothecine]"
target_under_test = "Saccharomyces cerevisiae BY4741 SeMeCo community"
result = 3.19

[[record]]
compound = "NC[C@H]1O[C@H](O[C@H]2[C@H](O)[C@@H](O[C@H]3O[C@H](CO)[C@@H](O)[C@H](N)[C@H]3O)[C@H](N)C[C@@H]2N)[C@H](N)C[C@@H]1O [Tobramycin]"
target_under_test = "Saccharomyces cerevisiae BY4741 SeMeCo community"
result = -0.17

[[record]]
compound = "NCC[C@H](O)C(=O)N[C@@H]1C[C@H](N)[C@@H](O[C@H]2O[C@H](CN)[C@@H](O)[C@H](O)[C@H]2O)[C@H](O)[C@H]1O[C@H]1O[C@H](CO)[C@@H](O)[C@H](N)[C@H]1O [Amikacin hydrate]"
target_under_test = "Saccharomyces cerevisiae BY4741 SeMeCo community"
result = 0.15

[[record]]
compound = "Cc1c(OCC(F)(F)F)ccnc1C[S@@+]([O-])c1nc2ccccc2[nH]1 [Dexlansoprazole]"
target_under_test = "Saccharomyces cerevisiae BY4741 SeMeCo community"
result = 1.28

[[record]]
compound = "COc1cccc2c1C(=O)c1c(O)c3c(c(O)c1C2=O)C[C@@](O)(C(=O)CO)C[C@@H]3O[C@H]1C[C@H](N)[C@@H](O)[C@H](C)O1 [Epirubicin HCl]"
target_under_test = "Saccharomyces cerevisiae BY4741 SeMeCo community"
result = -0.38


* * *

tested on: Saccharomyces cerevisiae BY4741 SeMeCo community; test: z-score of subpopulation abundance vs DMSO median, subpopulation auxotrophic for HUM; higher = larger share of this subpopulation than in DMSO controls; conditions: 10 µM; 24 h; SM minimal medium; subpopulation (auxotrophy): HUM
Counter-ions that a name gives are not always drawn.
Measure Name: z-score of subpopulation abundance

[[record]]
compound = "Cc1c(Nc2ncccc2C(=O)O)cccc1C(F)(F)F"
quantitative_readout = 0.12

[[record]]
compound = "N[C@@H](CCC(=O)O)C(=O)O [(S)-Glutamic acid]"
quantitative_readout = -0.56

[[record]]
compound = "Fc1ccc([C@@H]2CCNC[C@H]2COc2ccc3c(c2)OCO3)cc1 [Paroxetine HCl]"
quantitative_readout = -0.39

[[record]]
compound = "CC[C@H](C)C[C@H](C)CCCCCCCCC(=O)N[C@H]1C[C@@H](O)[C@@H](NCCN)NC(=O)[C@@H]2[C@@H](O)CCN2C(=O)[C@H]([C@H](O)CCN)NC(=O)[C@H]([C@H](O)[C@@H](O)c2ccc(O)cc2)NC(=O)[C@@H]2C[C@@H](O)CN2C(=O)[C@H]([C@@H](C)O)NC1=O [Caspofungin Acetate]"
quantitative_readout = 10.8

[[record]]
compound = "C#C[C@]1(O)CC[C@H]2[C@@H]3CCC4=Cc5oncc5C[C@]4(C)[C@H]3CC[C@@]21C"
quantitative_readout = 0.74

[[record]]
compound = "CC(=O)Oc1ccccc1C(=O)O"
quantitative_readout = -0.14

[[record]]
compound = "C[C@]12CC[C@@H]3c4ccc(OS(=O)(=O)O)cc4CC[C@H]3[C@@H]1CCC2=O [Estropipate]"
quantitative_readout = -0.32

[[record]]
compound = "CN(C)CCC=C1c2ccccc2C(C)(C)c2ccccc21 [Melitracen hydrochloride]"
quantitative_readout = -0.78

